# merged literature set: log10(Ki) with Adenosine receptor A1 (Homo sapiens)
# Sequence (P30542 whole entry): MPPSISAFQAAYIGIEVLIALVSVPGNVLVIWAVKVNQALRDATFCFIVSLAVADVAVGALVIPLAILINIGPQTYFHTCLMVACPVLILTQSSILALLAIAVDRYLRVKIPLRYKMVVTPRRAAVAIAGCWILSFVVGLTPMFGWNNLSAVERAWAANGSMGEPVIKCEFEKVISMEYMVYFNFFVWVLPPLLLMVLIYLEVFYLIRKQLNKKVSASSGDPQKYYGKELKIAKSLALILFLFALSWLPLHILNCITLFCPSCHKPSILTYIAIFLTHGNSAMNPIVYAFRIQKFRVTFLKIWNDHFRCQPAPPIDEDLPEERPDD
Remember, log10 of Ki, in nM.

Below: 3 molecules and their reported log10(Ki).
MOLECULE	OUTCOME_MEASURE	MEASUREMENT
Nc1nc(OCCCCc2ccccc2)nc2c1ncn2[C@@H]1O[C@H](CO)[C@@H](O)[C@H]1O	log10(Ki)	3.31
CC(O)CNc1nc2nn(C)cc2c2nc(-c3ccco3)nn12 (stereo unspecified)	log10(Ki)	2.57
COc1cccc(-c2n[nH]c(Cc3cccc(F)c3F)n2)c1	log10(Ki)	2.95

Batch: log10(Ki) for all items listed.
1. CN1CCN(CCC(=O)Nc2ccc(-c3cn4c(=O)n(-c5ccccc5)nc4c(N)n3)cc2)CC1
2. N#Cc1c(N)nc(SCc2csc(-c3cccc(F)c3)n2)nc1-c1ccc2c(c1)OCO2

Result:
1. 2.82
2. 1.15
